assay: Cytotoxicity tests (trypan blue, MTT) and apoptosis test (Cell Death ELISA, DNA fragmentation) on HepG2 cells; conditions: human, HepG2 hepatocyte cells
readout: IC50

Requested field: IC50. Item: CC[C@@]1(O)C(=O)OCc2c1cc1n(c2=O)Cc2cc3ccccc3nc2-1
> 1 µg/mL

Just for reference, patent US8003375B2 is where these values come from.
